Source of measurements: patent US20090118332A1

target: human Fatty Acid Synthase (Homo sapiens); construct: made in house; test: Human FAS enzyme assay (decrease in NADPH fluorescence); format: biochemical; settings: % inhibition at a concentration of 100 μmolar
Sequence (P49327 whole entry): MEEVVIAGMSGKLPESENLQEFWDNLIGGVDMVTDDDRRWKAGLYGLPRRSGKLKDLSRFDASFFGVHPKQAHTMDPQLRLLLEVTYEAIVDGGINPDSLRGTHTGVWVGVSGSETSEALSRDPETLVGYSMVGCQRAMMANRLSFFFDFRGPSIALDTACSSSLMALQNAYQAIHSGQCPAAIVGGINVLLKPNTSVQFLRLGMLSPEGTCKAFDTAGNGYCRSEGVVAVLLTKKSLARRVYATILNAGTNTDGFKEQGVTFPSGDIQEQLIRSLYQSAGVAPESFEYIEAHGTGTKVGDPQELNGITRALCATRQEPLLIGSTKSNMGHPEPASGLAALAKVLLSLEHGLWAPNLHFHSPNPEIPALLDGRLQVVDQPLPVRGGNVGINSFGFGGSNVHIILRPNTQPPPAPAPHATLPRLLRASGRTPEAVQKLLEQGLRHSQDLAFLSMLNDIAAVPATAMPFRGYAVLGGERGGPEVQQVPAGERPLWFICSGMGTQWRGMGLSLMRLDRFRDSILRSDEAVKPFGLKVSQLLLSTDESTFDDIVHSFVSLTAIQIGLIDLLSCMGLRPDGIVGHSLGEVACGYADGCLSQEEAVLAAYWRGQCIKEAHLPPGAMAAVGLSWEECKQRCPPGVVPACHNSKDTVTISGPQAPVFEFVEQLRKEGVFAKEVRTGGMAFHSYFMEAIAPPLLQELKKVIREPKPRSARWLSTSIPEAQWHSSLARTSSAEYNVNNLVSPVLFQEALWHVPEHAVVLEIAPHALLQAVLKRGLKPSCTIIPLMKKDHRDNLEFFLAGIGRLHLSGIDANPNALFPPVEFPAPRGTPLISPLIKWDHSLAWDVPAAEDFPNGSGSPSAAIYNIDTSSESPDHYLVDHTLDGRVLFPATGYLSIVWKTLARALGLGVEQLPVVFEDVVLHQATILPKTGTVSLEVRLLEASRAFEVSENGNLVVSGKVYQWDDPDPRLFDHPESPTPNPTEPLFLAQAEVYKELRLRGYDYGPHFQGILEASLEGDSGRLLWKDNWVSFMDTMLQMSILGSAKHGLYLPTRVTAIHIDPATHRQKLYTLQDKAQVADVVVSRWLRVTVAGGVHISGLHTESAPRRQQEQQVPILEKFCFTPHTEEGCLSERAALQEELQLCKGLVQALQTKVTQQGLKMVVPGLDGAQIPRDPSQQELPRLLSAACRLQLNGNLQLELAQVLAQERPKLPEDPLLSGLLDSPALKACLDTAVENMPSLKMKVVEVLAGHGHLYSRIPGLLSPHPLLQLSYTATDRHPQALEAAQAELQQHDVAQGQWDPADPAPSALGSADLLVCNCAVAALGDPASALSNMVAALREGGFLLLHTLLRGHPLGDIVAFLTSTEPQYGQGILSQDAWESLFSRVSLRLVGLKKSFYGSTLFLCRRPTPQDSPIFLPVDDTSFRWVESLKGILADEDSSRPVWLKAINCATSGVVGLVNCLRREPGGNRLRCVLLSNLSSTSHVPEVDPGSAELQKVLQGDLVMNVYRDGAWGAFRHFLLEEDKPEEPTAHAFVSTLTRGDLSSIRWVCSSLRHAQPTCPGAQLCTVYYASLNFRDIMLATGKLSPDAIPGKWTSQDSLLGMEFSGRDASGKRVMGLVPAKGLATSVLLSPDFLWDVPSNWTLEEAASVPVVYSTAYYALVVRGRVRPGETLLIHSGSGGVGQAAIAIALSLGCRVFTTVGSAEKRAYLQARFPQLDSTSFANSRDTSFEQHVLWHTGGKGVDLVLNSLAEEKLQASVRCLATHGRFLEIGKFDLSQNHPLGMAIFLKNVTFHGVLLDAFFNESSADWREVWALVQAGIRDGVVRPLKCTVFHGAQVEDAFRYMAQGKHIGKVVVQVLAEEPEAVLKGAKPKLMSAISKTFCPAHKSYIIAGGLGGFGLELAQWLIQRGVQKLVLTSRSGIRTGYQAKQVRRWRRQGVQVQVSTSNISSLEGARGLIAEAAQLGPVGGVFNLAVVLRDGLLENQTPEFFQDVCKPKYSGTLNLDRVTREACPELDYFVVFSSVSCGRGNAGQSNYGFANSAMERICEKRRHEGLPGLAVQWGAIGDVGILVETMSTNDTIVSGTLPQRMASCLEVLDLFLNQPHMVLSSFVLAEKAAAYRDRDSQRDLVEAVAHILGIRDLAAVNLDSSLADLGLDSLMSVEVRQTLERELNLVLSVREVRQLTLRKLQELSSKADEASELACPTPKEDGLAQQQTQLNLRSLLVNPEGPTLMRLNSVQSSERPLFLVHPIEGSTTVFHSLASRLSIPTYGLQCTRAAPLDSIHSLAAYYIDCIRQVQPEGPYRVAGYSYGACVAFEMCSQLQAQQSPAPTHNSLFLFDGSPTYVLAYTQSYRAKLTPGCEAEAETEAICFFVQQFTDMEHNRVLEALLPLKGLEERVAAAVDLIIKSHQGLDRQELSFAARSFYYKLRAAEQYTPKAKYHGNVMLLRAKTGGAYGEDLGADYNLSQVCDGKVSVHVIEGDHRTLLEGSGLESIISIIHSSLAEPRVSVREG
property-label: inhibition at 100 µM (%)
Record the value in %, omitting the unit from your answer.

Record excerpt, results attached:
[
  {
    "compound": "COC(=O)CNC(=O)CNC(=O)Nc1cc(C(=O)N2CCC(c3ccc(C#N)cc3)CC2)ccc1C",
    "measured-on": "human Fatty Acid Synthase (Homo sapiens)",
    "units-text": "%",
    "inhibition at 100 µM": 90.9
  },
  {
    "compound": "Cc1ccc(C(=O)N2CCC(c3ccc(C#N)cc3)CC2)cc1NC(=O)NC1CN2CCC1CC2 (stereo in doubt)",
    "measured-on": "human Fatty Acid Synthase (Homo sapiens)",
    "units-text": "%",
    "inhibition at 100 µM": 89.4
  },
  {
    "compound": "Cc1ccc(C(=O)N2CCC(c3ccc(F)cc3)CC2)cc1NC(=O)NCCN(C)S(C)(=O)=O",
    "measured-on": "human Fatty Acid Synthase (Homo sapiens)",
    "units-text": "%",
    "inhibition at 100 µM": 88.9
  },
  {
    "compound": "Cc1ccc(C(=O)N2CCC(c3ccc(C#N)cc3)CC2)cc1NC(=O)NCCCC(=O)OC(C)(C)C",
    "measured-on": "human Fatty Acid Synthase (Homo sapiens)",
    "units-text": "%",
    "inhibition at 100 µM": 101
  },
  {
    "compound": "Cc1ccc(C(=O)N2CCC(c3ccc(C#N)cc3)CC2)cc1NC(=O)NCc1nccs1",
    "measured-on": "human Fatty Acid Synthase (Homo sapiens)",
    "units-text": "%",
    "inhibition at 100 µM": 100
  },
  {
    "compound": "CC(C)NC(=O)Nc1cccc(C(=O)N2CCC(c3ccc(C#N)cc3)CC2)c1",
    "measured-on": "human Fatty Acid Synthase (Homo sapiens)",
    "units-text": "%",
    "inhibition at 100 µM": 90.3
  },
  {
    "compound": "Cc1ccc(C(=O)N2CCC(c3ccc(C#N)cc3)CC2)cc1NC(=O)N1CCOCC1",
    "measured-on": "human Fatty Acid Synthase (Homo sapiens)",
    "units-text": "%",
    "inhibition at 100 µM": 79.7
  },
  {
    "compound": "N#Cc1ccc(C2CCN(C(=O)c3cc(NC(=O)NCc4ccccc4)ccc3F)CC2)cc1",
    "measured-on": "human Fatty Acid Synthase (Homo sapiens)",
    "units-text": "%",
    "inhibition at 100 µM": 71.9
  }
]

Noted for Cc1ccc(C(=O)N2CCC(c3ccc(C#N)cc3)CC2)cc1NC(=O)NCc1ncc(F)cc1F : its inhibition at 100 µM reads 107

Noted for Cc1ccc(C(=O)N2CCC(c3ccc(C#N)cc3)CC2)cc1NC(=O)NCc1cccnc1 : its inhibition at 100 µM reads 91.6

Noted for Cc1ccc(C(=O)N2CCC(c3ccc(C#N)cc3)CC2)cc1NC(=O)NCCOCCO : its inhibition at 100 µM reads 85.6

Noted for Cc1ccc(C(=O)N2CCC(c3ccc(F)cc3)CC2)cc1NC(=O)NC(C)C : its inhibition at 100 µM reads 72.6

Noted for Cc1ccc(C(=O)N2CCC(c3ccc(C#N)cc3)CC2)cc1NC(=O)NCCN1CCCC1 : its inhibition at 100 µM reads 87.9
